assay: in vivo; conditions: C57BL/6, mouse, po, 10 mg/kg
Metric: Tmax
Answer with the number, then the unit.

Answer with the recorded Tmax for the molecule listed here: CC(=O)Nc1ccc(Nc2ncnc(NCCC(=O)OC(C)(C)C)n2)cc1
15 min

----------
biological target: Atrial natriuretic peptide receptor 3 (Homo sapiens); assay: Agonist activity at NPRC in human Hela cells assessed as decrease in forskolin-induced cAMP level at 100 uM relative to control; assay type: cell-based; set-up: scale not given: the % may be the effect or the level left
Metric: Activity (%)
Give bare numbers, in %.

Known results for compounds:
CC(=O)Nc1ccc(Nc2ncnc(NCCC(=O)OC(C)(C)C)n2)cc1	37.7
COC(=O)[C@H](CC(C)C)Nc1nc(Cl)nc(N[C@H]2CC[C@H](Nc3nc(Cl)nc(N[C@@H](CC(C)C)C(=O)OC)n3)CC2)n1	31.4
CC(=O)Nc1ccc(Nc2ncnc(N[C@@H](CC(C)C)C(=O)OC(C)(C)C)n2)cc1	20.6

Report its Activity with Atrial natriuretic peptide receptor 3 (Homo sapiens) as the test system: CC(=O)Nc1ccc(Nc2ncnc(N[C@@H](Cc3ccccc3)C(=O)OC(C)(C)C)n2)cc1
9.16

----------
target: Atrial natriuretic peptide receptor 3 (Rattus norvegicus, UniProt P41740); assay: Agonist activity at NPRC in rat small mesenteric arteries assessed as vasorelaxation preincubated with M372049 for 15 mins followed by compound treatment by Organ bath assay; format: tissue-based, Artery
Sequence (P41740 whole entry): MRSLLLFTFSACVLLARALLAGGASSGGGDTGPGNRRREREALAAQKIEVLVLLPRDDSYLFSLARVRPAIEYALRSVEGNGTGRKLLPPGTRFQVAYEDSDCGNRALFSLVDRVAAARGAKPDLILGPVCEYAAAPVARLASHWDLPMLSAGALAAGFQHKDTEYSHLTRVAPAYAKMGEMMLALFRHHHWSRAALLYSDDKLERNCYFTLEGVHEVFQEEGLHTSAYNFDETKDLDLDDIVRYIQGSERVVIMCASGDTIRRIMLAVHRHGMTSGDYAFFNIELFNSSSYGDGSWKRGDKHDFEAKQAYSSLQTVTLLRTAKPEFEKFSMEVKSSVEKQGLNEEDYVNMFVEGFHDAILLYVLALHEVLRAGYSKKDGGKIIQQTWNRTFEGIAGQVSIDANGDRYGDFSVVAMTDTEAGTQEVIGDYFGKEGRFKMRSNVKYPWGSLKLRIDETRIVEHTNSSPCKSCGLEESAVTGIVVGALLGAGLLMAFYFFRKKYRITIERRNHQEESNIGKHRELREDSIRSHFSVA
Metric: EC50 (µM)
One number for each entry, in µM.

COC(=O)[C@H](CC(C)C)Nc1nc(Cl)nc(N[C@H]2CC[C@H](Nc3nc(Cl)nc(N[C@@H](CC(C)C)C(=O)OC)n3)CC2)n1	0.47

Now take the following compound into account.
Answer with the recorded EC50 for the compound listed here: CC(=O)Nc1ccc(Nc2ncnc(NCCC(=O)OC(C)(C)C)n2)cc1
8.64

----------
Target: Atrial natriuretic peptide receptor 3 (Homo sapiens)
Sequence (P17342 whole entry): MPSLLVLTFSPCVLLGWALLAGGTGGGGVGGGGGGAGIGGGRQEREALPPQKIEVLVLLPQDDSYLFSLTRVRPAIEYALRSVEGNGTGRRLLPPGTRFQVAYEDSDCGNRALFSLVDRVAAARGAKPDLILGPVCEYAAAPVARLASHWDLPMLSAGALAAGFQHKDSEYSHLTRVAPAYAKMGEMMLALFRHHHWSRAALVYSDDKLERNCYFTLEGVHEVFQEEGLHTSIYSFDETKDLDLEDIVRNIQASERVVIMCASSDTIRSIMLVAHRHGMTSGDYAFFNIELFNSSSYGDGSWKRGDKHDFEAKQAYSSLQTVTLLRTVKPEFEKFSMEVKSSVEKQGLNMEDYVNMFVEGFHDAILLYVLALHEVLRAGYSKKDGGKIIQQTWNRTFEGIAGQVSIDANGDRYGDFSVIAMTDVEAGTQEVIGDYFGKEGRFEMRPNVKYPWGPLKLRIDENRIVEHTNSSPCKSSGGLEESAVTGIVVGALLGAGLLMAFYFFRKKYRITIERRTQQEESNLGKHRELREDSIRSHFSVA
Mark 1 for Kd under 50 µM, -1 if at or over.

CCCCS(=O)(=O)Nc1ccc(Nc2nc(Cl)nc(N[C@@H](CC(C)C)C(=O)OC(C)(C)C)n2)cc1	1
CC(=O)Nc1ccc(Nc2nc(Cl)nc(N[C@@H](CC(C)C)C(=O)OC(C)(C)C)n2)cc1	1

Hi there! Is Kd for CC(=O)Nc1ccc(Nc2ncnc(N[C@@H](Cc3ccc(F)cc3)C(=O)OC(C)(C)C)n2)cc1 below 50 µM, do you know?
1

Hi there! Is Kd for CC(=O)Nc1ccc(Nc2ncnc(N[C@@H](CC(C)C)C(=O)O)n2)cc1 below 50 µM, do you know?
-1

Hi there! Is Kd for COC(=O)[C@H](CC(C)C)Nc1nc(Cl)nc(N[C@H]2CC[C@H](Nc3nc(Cl)nc(N[C@@H](CC(C)C)C(=O)OC)n3)CC2)n1 below 50 µM, do you know?
-1

Hi there! Is Kd for CC(=O)Nc1ccc(Nc2ncnc(N[C@H](COC(C)(C)C)CC(C)C)n2)cc1 below 50 µM, do you know?
1

Hi there! Is Kd for CC(=O)Nc1ccc(Nc2ncnc(N[C@@H](CC(C)C)C(=O)OC3CCCC3)n2)cc1 below 50 µM, do you know?
1

Hi there! Is Kd for CCCCS(=O)(=O)Nc1ccc(Nc2ncnc(N[C@@H](CC(C)C)C(=O)OC(C)(C)C)n2)cc1 below 50 µM, do you know?
1

Hi there! Is Kd for CC(=O)Nc1ccc(Nc2ncnc(N[C@H](C(=O)OC(C)(C)C)C(C)(C)C)n2)cc1 below 50 µM, do you know?
-1

Provenance of the data: ChEMBL document CHEMBL5154815
